subjectOfTest: recombinant human GITR (Cat No. 13643-H08H, Lot No. LC12JA2509, Sino Biological) (human) (UniProt Q9Y5U5)
assay: SPR Biacore 8K, single-cycle kinetics, IgG in supernatant captured on Protein A, GITR as analyte
observedProperty: Kd (nM)
Write the value in nM as a bare number.

Consider anti-GITR 51B VH3/VL4 humanized antibody (human IgG1, kappa) (antibody, V domains shown, also called VH3/Vk4; 51B VH3/Vk4) VH: QVQLVQSGAEVKKPGASVKVSCKTTGYRFTGYWIEWVRQPPGKGLEWIGEILPGSGATYYSENFKGKVTITADTSTDTAYMELSSLRSEDTAIYYCARKGGYYAMDYWGQGTLVTVSS VL: EIVLTQSPATLSLSPGERATLSCTASSSVSSSYFHWYQQKPGKAPKLWIYSTSNLQSGVPDRFSGSGSGTDYTLTISSLQAEDVATYYCHLYHRSPRTFGGGTKVEIKR . Its measured Kd is 0.758

Per the record, anti-GITR 51B VH5/VL4 humanized antibody (human IgG1, kappa) (antibody, V domains shown) VH: QVQLVQSGAEVKKPGASVKVSCKTTGYRFTGYWIDWVRQPPGKGLEWIGEILPGSGATYYSENFKGKVTITADTSTDTAYMELSSLRSEDTAIYYCARKGGYYAMDYWGQGTLVTVSS VL: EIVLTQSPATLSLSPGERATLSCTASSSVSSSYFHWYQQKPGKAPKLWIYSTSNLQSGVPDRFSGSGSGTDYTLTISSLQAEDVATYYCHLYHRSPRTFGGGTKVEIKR has Kd of 1.37
